// reported abundance fitness for each item listed
B1: Zinc finger homeobox protein 3, residues 2147 to 2202; numbered along this chain, Q15911 (parent)
chain: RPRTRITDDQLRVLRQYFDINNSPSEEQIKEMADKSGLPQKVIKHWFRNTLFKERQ

# Variants of: B1
# test-summary: abundance fitness (aPCA) (normalised: wild type 0, dead -1); higher = more abundant; growth selection in yeast, the domain comes from the species named
# particulars: Homo sapiens
Lab note: jot the number down without any unit.

Known results for variants:
A33N | -0.21
E26K | -0.016
F18R | -0.069
T7C | -0.367

Challenge: Given R12L , state its recorded abundance fitness.
Response given: -0.085

Challenge: Given Q16D , state its recorded abundance fitness.
Response given: -0.025

Challenge: Given K53C , state its recorded abundance fitness.
Response given: -0.269

Challenge: Given E26C , state its recorded abundance fitness.
Response given: 0.024

Challenge: Given F47S , state its recorded abundance fitness.
Response given: -0.632

Challenge: Given Q40K , state its recorded abundance fitness.
Response given: 0.193

Challenge: Given N22R , state its recorded abundance fitness.
Response given: 0.116

Challenge: Given W46N , state its recorded abundance fitness.
Response given: -0.561

Challenge: Given K30F , state its recorded abundance fitness.
Response given: -0.264

Challenge: Given L51Y , state its recorded abundance fitness.
Response given: -0.007

Challenge: Given I43E , state its recorded abundance fitness.
Response given: -0.767

Challenge: Given R3F , state its recorded abundance fitness.
Response given: -0.275

Challenge: Given K35G , state its recorded abundance fitness.
Response given: -0.402

Challenge: Given I29C , state its recorded abundance fitness.
Response given: -0.279

Challenge: Given E26T , state its recorded abundance fitness.
Response given: -0.057

Challenge: Given F47H , state its recorded abundance fitness.
Response given: -0.699

Challenge: Given D19S , state its recorded abundance fitness.
Response given: -0.015
